- EXPERIMENTAL_SYSTEM: T1, human CD96v2 expressed on cells (CHO cells; transiently transfected HEK cells) (human, UniProt P40200-2 22-569)
- T1 construct: whole, on cells; the cell is named under assay; also called CHO-huCD96; hCD96v2
- T1 sequence (looked up): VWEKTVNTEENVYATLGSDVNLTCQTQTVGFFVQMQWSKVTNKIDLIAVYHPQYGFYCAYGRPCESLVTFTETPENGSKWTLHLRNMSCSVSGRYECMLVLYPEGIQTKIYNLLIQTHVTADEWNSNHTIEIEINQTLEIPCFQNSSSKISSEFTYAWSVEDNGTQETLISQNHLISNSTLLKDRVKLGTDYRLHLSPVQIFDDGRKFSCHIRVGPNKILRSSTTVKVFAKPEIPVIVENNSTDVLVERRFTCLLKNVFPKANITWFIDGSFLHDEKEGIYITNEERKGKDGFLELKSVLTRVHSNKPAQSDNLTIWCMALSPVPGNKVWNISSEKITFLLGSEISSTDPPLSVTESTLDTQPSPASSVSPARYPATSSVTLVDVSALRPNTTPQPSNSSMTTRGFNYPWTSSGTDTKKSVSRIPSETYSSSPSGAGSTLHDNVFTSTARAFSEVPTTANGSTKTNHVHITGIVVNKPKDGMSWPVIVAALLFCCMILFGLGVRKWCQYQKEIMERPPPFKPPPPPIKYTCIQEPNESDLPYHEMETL
- EXPERIMENT: flow cytometry on CHO cells expressing human CD96v2
PROPERTY_NAME: pEC50
Scale note: pEC50 = -log10(concentration in M).

Look over these answered cases.
BINDER	pEC50
42Y073-86F08-17 (antibody, V domains shown, Fully human antibody; also called 42Y073-88F08-17) VH: QVQLVQSGAEVKKPGSSVKVSCKASGGTFREYAISWVRQAPGQGLEWMGGIIPVFGTANYAQKFQGRVTITADESTSTAYMELSSLRSEDTAVYYCARGAGYYGDKDPMDVWGQGTTVTVSS VL: DIQLTQSPSSLSASVGDRVTITCRASQSISSYLNWYQQKPGKAPKLLIYAASSLQSGVPSRFSGSGSGTDFTLTISSLQPEDFATYYCQQVLHTITFGGGTKVEIK	10.00
42Y073-86F04-5 (antibody, V domains shown, Fully human antibody) VH: QVQLVQSGAEVKKPGSSVKVSCKASGGTFSSHAISWVRQAPGQGLEWMGGIIPIFGRGKYAQKFQGRVTITADESTSTAYMELSSLRSEDTAVYYCARLLGESGMDVWGQGTTVTVSS VL: DIQMTQSPSSLSASVGDRVTITCRASQSISSYLNWYQQKPGKAPKLLIYAASSLQSGVPSRFSGSGSGTDFTLTISSLQPEDFATYYCQQPYFSPPTFGGGTKVEIK	10.30

The reported value for 42Y073-86F08-8 (antibody, V domains shown, Fully human antibody; also called 42Y073-88F08-8) VH: QVQLVQSGAEVKKPGSSVKVSCKASGGTFWLYAISWVRQAPGQGLEWMGGIIPQLGTANYAQKFQGRVTITADESTSTAYMELSSLRSEDTAVYYCARGAGYYGDKDPMDVWGQGTTVTVSS VL: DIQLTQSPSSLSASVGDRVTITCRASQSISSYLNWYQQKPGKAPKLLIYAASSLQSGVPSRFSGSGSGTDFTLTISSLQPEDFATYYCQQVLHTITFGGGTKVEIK in terms of pEC50 is 9.77

Data origin, for the record: patent US12528864
